koff for assorted binders
# system: T1, sIL-6R (soluble IL-6 receptor; SBH Sciences) (human, UniProt P08887 20-365)
# T1 construct: also called human IL-6R
# T1 sequence: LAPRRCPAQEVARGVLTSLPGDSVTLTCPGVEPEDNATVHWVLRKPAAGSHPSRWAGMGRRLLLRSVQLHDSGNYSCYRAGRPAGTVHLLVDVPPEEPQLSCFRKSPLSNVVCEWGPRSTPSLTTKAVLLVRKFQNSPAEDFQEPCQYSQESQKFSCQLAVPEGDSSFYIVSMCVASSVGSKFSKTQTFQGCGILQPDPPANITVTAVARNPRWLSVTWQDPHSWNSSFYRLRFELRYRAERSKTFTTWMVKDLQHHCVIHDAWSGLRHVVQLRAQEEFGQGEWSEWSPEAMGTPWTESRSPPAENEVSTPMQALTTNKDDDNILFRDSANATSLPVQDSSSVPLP
# measurement_notes: SPR (BIAcore 3000), antibody on chip, sIL-6R analyte, 25 C
# Protocol: All SPR measurements were performed on a BIAcore 3000 instrument (GE Biosciences, Piscataway, N.J.). BIAcore Software-BIAcore 3000 Control Software V3.2 was used for the operation and control of the BIAcore 3000 instrument. […] Data was analyzed by using the Kinetics Wizard and the manual fitting programs that are both included with the BiaEvaluation Software V4.1.
reported_metric: koff (s⁻¹)

{"columns": ["binder", "reported_metric", "unit_descriptor", "test_value"],
 "data": [
  ["238# (antibody, human IgG1, kappa, V domains shown) VH: QVQLQESGPGLVRPSQTLSLTCTVSGYSITSDHAWSWVRQPPGRGLEWIGYISYSGMITYNPSLKSRVTMLRDTSKNQFSLRLSSVTAADTAVYYCARCLARTTAMDYWGQGSLVTVSS VL: DIQMTQSPSSLSASVGDRVTITCRASQDISSYLNWYQQKPGKAPKLLIYYTSRLHSGVPSRFSGSGSGTDFTFTISSLQPEDIATYYCGQGNRLPYTFGQGTKVEIKR", "koff", "s⁻¹", "1.5e-05"],
  ["228# (antibody, human IgG1, kappa, V domains shown, also called Sample # 228) VH: QVQLQESGPGLVRPSQTLSLTCTVSGYSITSDHAWSWVRQPPGRGLEWIGYISYSGMTTYNPSLKSRVTMLRDTSKNQFSLRLSSVTAADTAVYYCARCLARMTAIDFWGQGSLVTVSS VL: DIQMTQSPSSLSASVGDRVTITCRASQDISSYLNWYQQKPGKAPKLLIYYTSRLHSGVPSRFSGSGSGTDFTFTISSLQPEDIATYYCQQGNTLPYTFGQGTKVEIKR", "koff", "s⁻¹", "3.04e-05"]
]}
